- target-of-assay: IRAK4 (Homo sapiens, UniProt Q9NWZ3)
- Sequence (Q9NWZ3 whole entry): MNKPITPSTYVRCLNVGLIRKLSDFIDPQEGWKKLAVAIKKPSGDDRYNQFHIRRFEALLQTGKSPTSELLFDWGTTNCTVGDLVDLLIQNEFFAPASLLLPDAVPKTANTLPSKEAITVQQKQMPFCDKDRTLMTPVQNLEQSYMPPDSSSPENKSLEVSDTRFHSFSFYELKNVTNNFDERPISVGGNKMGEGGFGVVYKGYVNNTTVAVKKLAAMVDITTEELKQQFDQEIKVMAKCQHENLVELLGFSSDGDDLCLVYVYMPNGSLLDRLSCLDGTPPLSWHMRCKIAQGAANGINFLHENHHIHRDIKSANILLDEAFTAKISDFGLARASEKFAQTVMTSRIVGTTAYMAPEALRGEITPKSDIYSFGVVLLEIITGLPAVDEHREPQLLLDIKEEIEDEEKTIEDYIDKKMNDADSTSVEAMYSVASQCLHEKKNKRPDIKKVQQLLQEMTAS
- measurement-description: 2-hour 10 μM ATP Biochemical Assay (MesoScale Detection format; IRAK4 phosphorylation of biotin labeled IRAK1 activation loop peptide)
- test-settings: 0.1 nM IRAK4
recorded-endpoint: log10 IC50 (log10 of the value in nM)

1. COc1cccc(NC(=O)c2cn3cc(C4CC45CCCCO5)nc3cc2OC)n1 (centres unmarked) | 0.95
2. COc1cc2nc(C3CCOCC3)cn2cc1C(=O)Nc1cccnc1C1CC1 | 1.94
3. COc1cccc(NC(=O)c2cn3cc(C4CC(OC)C4)nc3cc2OC)n1 (centres unmarked) | 0.95
4. COc1cc2nc(C3CCOCC3)cn2cc1C(=O)Nc1cccc2c1CCCC2 | 0.60
5. COc1cc2nc(C3CCOCC3)cn2cc1C(=O)Nc1cccc(C)c1 | 1.00
6. COc1cc2nc(C3CCOCC3)cn2cc1C(=O)Nc1cccc2c1CCOC2 | 1.28
7. COc1cccc(NC(=O)c2cn3cc(C45CC(C#N)(C4)C5)nc3cc2OC)n1 | 0.78
8. COc1cccc(NC(=O)c2cn3cc(C4CC45CCOC5)nc3cc2OC)n1 (centres unmarked) | 0.90
9. COc1cc2nc(C3CCOCC3)cn2cc1C(=O)Nc1ccc(F)c(C(F)F)c1 | 1.30
10. COc1cc2nc(C3CCOCC3)cn2cc1C(=O)Nc1cccc(C(C)(F)F)c1 | 1.11
11. COc1cc2nc(C3CCOCC3)cn2cc1C(=O)Nc1cccnc1C | 1.40

----------
- target-of-assay: IRAK4 (Homo sapiens)
- measurement-description: biochemical
pIC50: −log10 of the molar value.
Mark label 1 for reported pIC50 of 9 or greater; mark label 0 for anything smaller.

1) COc1nc(C(=O)Nc2cccc3c2CCC3)cn2cc(C3CCOCC3)nc12 | label 0
2) CC(C)Oc1cc2nc(C3CC3)cn2cc1C(=O)Nc1cccc(OCC(F)F)n1 | label 0
3) CC12CC(c3cn4cc(C(=O)Nc5ccn(C(F)F)n5)c(OCC5CC5)nc4n3)(CO1)C2 | label 0
4) COc1cccc(NC(=O)c2cn3cc(C4CCOCC4)nc3cc2OC(C)C)n1 | label 1
5) CC12CC(c3cn4cc(C(=O)Nc5ccn(CC#N)n5)c(OC5CCC5)cc4n3)(CO1)C2 | label 0
6) CC(C)Oc1nc2nc(C34CCC(C)(C3)OC4)cn2cc1C(=O)Nc1cccc(C(F)F)n1 (stereo not shown) | label 1
7) CC(C)Oc1nc(C(=O)Nc2cccc(C(F)F)n2)cn2cc(C34COC(C)(C3)C4)nc12 | label 0
8) COC12CC(c3cn4cc(C(=O)Nc5cccc(C(F)F)n5)c(OC(C)C)cc4n3)(C1)C2 | label 1
9) CC(C)Oc1nc2nc(C34CCC(C)(CC3)OC4)cn2cc1C(=O)Nc1cccn(C(F)F)c1=O | label 1
10) COc1cc2nc(C34COC(C)(C3)C4)cn2cc1C(=O)Nc1ccccn1 | label 0
11) CC12CCC(c3cn4cc(C(=O)Nc5cnn6cc(F)cnc56)c(OC5CC5)cc4n3)(CO1)C2 (stereo not shown) | label 1

----------
- target-of-assay: IRAK4 (Homo sapiens)
- measurement-description: biochemical
pIC50: −log10 of the molar value.
recorded-endpoint: pIC50

1) CCCOc1nc(C(=O)Nc2cccc(C(F)F)n2)cn2cc(C3CCOCC3)nc12 [Example 335] | 9.22
2) CC(C)Oc1cc2nc([C@]34CC[C@H](C3)OC4)cn2cc1C(=O)Nc1cnn2cccnc12 (single isomer, unassigned) [Example 583] | 9.10
3) CC12CCC(c3cn4cc(C(=O)Nc5cccn6cnnc56)c(OC5CCC5)cc4n3)(CO1)C2 (stereo not shown) [Example 540] | 9.10
4) CC(C)Oc1nc(C(=O)Nc2cnn3cccnc23)cn2cc(C34CCC(C)(CC3)OC4)nc12 [Example 428] | 8.80
5) COc1ncccc1NC(=O)c1cn2cc(C34CCC(C3)OC4)nc2cc1OC(C)C (stereo not shown) [Example 249] | 9.15
6) CC(C)Oc1nc2nc(C34COC(C)(C3)C4)cn2cc1C(=O)Nc1snc2cccnc12 [Example 376] | 8.74
7) CC(C)Oc1c(C(=O)Nc2cccc(C(F)F)n2)cn2cc(C34COC(CF)(C3)C4)nc2c1F [Example 269] | 8.92
